# SYSTEM UNDER TEST: Serine/threonine-protein phosphatase 5 (Homo sapiens) (UniProt P53041)
# Sequence (P53041 whole entry, looked up): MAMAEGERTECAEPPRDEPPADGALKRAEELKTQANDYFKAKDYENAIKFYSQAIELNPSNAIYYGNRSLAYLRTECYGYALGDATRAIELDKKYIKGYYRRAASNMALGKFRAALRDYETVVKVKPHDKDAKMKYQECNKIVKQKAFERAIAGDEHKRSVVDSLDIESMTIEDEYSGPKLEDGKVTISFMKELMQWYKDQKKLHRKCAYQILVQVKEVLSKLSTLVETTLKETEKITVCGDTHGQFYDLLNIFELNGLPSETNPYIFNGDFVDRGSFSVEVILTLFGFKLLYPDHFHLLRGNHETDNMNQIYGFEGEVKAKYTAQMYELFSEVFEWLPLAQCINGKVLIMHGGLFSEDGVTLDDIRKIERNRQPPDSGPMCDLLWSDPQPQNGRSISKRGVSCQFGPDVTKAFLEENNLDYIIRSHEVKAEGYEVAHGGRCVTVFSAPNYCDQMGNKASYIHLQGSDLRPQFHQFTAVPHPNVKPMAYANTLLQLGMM
# EXPERIMENTAL DETAILS: PP5 phosphatase inhibitors, primary screen, biochemical, fluorescence (AID 1987)
# CONDITION CONTEXT: purified PP5c, OMFP substrate fluorescence; at 6.7 µM
Hit rate of the full screen: of about 320,000 compounds, about 560 (0.17%) were called active.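 The calls were made as follows: active = inhibition above the campaign's mean inhibition across all tested compounds plus 3 SD (cut at about 9.5% in these data); inactive = the rest.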 The entries come from a sample that favours actives as a whole.
Result category, one only: Yes = active, No = inactive

A selection of reference data follows.
[
  {
    "COMPOUND": "N#Cc1c(N2CCCCC2)nc(N)c2c(N)nc(SCC(=O)O)cc12",
    "LABEL": "Yes"
  },
  {
    "COMPOUND": "CC(C)(C)N1C(=O)[C@H]2[C@@H](c3ccc(Br)cc3)N3C(=O)N(c4cccc(Cl)c4)C(=O)[C@@]3(C)[C@H]2C1=O",
    "LABEL": "No"
  },
  {
    "COMPOUND": "N#Cc1c(-c2ccccc2)cc(-c2ccccc2)nc1SCC(=O)O",
    "LABEL": "No"
  },
  {
    "COMPOUND": "O=c1ccc2c(-c3ccccc3S(=O)(=O)O)c3ccc(O)c(O)c3oc-2c1O",
    "LABEL": "Yes"
  },
  {
    "COMPOUND": "O=C(O)C1CCC(CNS(=O)(=O)c2ccc(Br)cc2)CC1 (stereo not given)",
    "LABEL": "No"
  }
]

Task: Answer briefly: the call reported for CCC(C)Sc1nc(C)nc2c1c(=O)n(C)c(=O)n2C (stereo not given) in this assay.
Result: No

Task: Answer briefly: the call reported for COc1ccc(C(=O)NCc2ccc(C)cc2)cc1S(=O)(=O)N1CCCC1 in this assay.
Result: No

Task: Answer briefly: the call reported for CC1CCCCC1NC(=O)C1CCCN1S(=O)(=O)c1cccc2nsnc12 (stereo not given) in this assay.
Result: No

Task: Answer briefly: the call reported for Cc1nnc(SCC(=O)Nc2ncc3c(n2)CC(C)(C)CC3=O)s1 in this assay.
Result: No

Task: Answer briefly: the call reported for N#CCc1c(C#N)c(N)nc(N2CCCC2)c1C#N in this assay.
Result: No
